# AUC(0-t) values compiled below
- test-name: Pharmacokinetic assay in mice
- Assay type: in vivo, Balb/c mice
- condition-context: male, Balb/c, plasma, 2 mg/kg; mouse, IV 2mpk
Your answer should be a plain number; it is taken to be in µM·h.

- compound: "Cn1ncc2c(N)nc3cc(F)c(C(=O)N(Cc4ccc5c(c4)OC(F)(F)O5)C4CC4)cc3c21"
  endpoint-unit: "µM·h"
  AUC(0-t): 6.24
- compound: "CCN(Cc1ccc2c(c1)OC(F)(F)O2)C(=O)c1ccc2nc(N)c3cnn(C)c3c2c1"
  endpoint-unit: "µM·h"
  AUC(0-t): 3.32
- compound: "Nc1nc2cnc(C(=O)N3CCOC[C@@H]3c3ccc(C(F)(F)F)cc3)cc2c2c1COC2 [Control compound B, reference compound]"
  endpoint-unit: "µM·h"
  AUC(0-t): 6.9
- compound: "CN(Cc1ccc2c(c1)OC(F)(F)O2)C(=O)c1cc2c(cc1F)nc(N)c1cnn(C)c12"
  endpoint-unit: "µM·h"
  AUC(0-t): 5.45
- compound: "CN(Cc1ccc2c(c1)OC(F)(F)O2)C(=O)c1ccc2nc(N)c3cnn(C)c3c2c1"
  endpoint-unit: "µM·h"
  AUC(0-t): 3.53

Please report the recorded AUC(0-t) for Cn1ncc2c(N)nc3cnc(C(=O)N4CCOC[C@@H]4c4ccc(C(F)(F)F)cc4)cc3c21 [Control compound A, reference compound] . 9.6
